Target: ALK2 (aa 147-end) (Homo sapiens (Human), UniProt Q04771)
Sequence (Q04771 147-509): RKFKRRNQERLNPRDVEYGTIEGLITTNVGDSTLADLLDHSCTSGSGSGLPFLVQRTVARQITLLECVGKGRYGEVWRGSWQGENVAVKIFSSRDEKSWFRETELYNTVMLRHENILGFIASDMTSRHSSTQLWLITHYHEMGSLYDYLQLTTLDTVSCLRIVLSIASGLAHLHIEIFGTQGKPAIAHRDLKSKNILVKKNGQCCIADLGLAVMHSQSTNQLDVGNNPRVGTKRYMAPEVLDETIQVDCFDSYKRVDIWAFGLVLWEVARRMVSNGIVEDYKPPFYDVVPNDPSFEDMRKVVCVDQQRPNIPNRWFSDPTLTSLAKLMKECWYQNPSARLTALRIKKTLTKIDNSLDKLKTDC
Experiment: ALK2 HTRF Assay
Assay type: biochemical
Conditions: ALK2 1 mM IC50, 1 mM ATP
Protocol: The enzymatic assays were conducted in white 384-well polystyrene plates in a final volume of 8 μL. The inhibitors were serially diluted in DMSO and added to the plate wells prior to addition of the other reaction components. […] The reaction was read on a PHERAstar FS plate reader (BMG Labtech). […]
Value Kind: IC50

mol=C[C@@H]1CN(c2ccc(-c3n[nH]c4cnc(N5[C@@H]6CC[C@H]5CN(c5ccc(C#N)cc5)C6)nc34)cn2)CCN1 value_kind=IC50 result="500 to 2000 nM"
mol=C[C@@H]1CN(c2ccc(-c3n[nH]c4cnc(N5[C@@H]6CC[C@H]5CN(C(=O)N5CCCC5)C6)nc34)cn2)CCN1 value_kind=IC50 result="100 to 500 nM"
mol=C[C@@H]1CN(c2ccc(-c3n[nH]c4cnc(N5[C@H](C)COC[C@@H]5C)nc34)cn2)CCN1 value_kind=IC50 result="500 to 2000 nM"
mol=Cc1cnc2n1CCN(c1ncc3[nH]nc(-c4ccc(N5CCN[C@H](C)C5)nc4)c3n1)C2 value_kind=IC50 result="100 to 500 nM"
mol=C[C@@H]1CN(c2ccc(-c3n[nH]c4cnc(N5C6CCC5CC6)nc34)cn2)CCN1 value_kind=IC50 result="100 to 500 nM"
